From: ChEMBL document CHEMBL3632547

test: Plasma protein binding in rat; assay type: ADME, cell-free; conditions: read-out: PPB (converted)
readout_kind: fraction unbound
Hey, just send me the number, nothing else.

query: Bench note: what fraction unbound did "CCn1cc(-c2cc3c(-c4cccc(N5CCNCC5)n4)n[nH]c3cn2)cn1" show?
result: 0.022

---

test: Apparent permeability from apical to basolateral side in MDCK cells; type: ADME, cell-based, Canis lupus familiaris; conditions: dog
readout_kind: Papp A→B
Show the value, then the unit it is measured in.

query: What Papp A→B value was documented for this compound, "CCn1cc(-c2cc3c(-c4cccc(N5CCNCC5)n4)n[nH]c3cn2)cn1" ?
result: 0.5 ×10⁻⁶ cm/s

---

assay: Efflux ratio of apparent permeability from basolateral to apical over apical to basolateral side in MDCK cells; type: ADME, cell-based, Canis lupus familiaris; conditions: dog
readout_kind: efflux ratio

query: What measured efflux ratio goes with "CCn1cc(-c2cc3c(-c4cccc(N5CCNCC5)n4)n[nH]c3cn2)cn1" ?
result: 51

---

biological target: Serine/threonine-protein kinase pim-2 (Homo sapiens)
Sequence (Q9P1W9 whole entry): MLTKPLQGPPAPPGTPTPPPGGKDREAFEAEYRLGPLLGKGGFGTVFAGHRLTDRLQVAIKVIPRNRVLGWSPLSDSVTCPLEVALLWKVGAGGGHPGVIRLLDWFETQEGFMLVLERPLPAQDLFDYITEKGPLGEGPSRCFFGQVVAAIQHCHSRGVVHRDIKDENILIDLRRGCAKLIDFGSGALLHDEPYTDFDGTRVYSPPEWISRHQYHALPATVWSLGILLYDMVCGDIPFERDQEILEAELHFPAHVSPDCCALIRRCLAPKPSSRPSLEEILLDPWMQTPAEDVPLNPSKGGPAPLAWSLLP
pKi: −log10 of the molar value.
Label rule, in plain words: pKi of 8 and up is Fulfilled, under 8 is Not fulfilled.

query: Tell me whether pKi is at least 8 here: "Cc1c[nH]c2cnc(-c3cccnc3)cc12"
result: Not fulfilled

query: Likewise for "O=C(Nc1cn[nH]c1)c1cccnc1" ?
result: Not fulfilled

query: Would you kindly repeat that for c1cc(-c2n[nH]c3cnc(C4CCCOC4)cc23)nc(N2CCNCC2)c1 (stereo unspecified) ?
result: Not fulfilled

query: Then what about the molecule "Cn1cc(-c2cc3c(-c4cccc(N5CC[C@@H](N)C5)n4)n[nH]c3cn2)cn1" ?
result: Fulfilled

query: Same question for "NC(=O)Nc1cc2c(-c3cccc(N4CCNCC4)n3)n[nH]c2cn1" please.
result: Fulfilled

query: // repeat for "Cn1cc(-c2cc3c(-c4cccc(N5CCNCC5)n4)n[nH]c3cn2)cn1" and report
result: Fulfilled

query: Now try "N[C@H]1CCCN(c2ccncc2-c2cc3c(-c4ccccc4F)n[nH]c3cn2)C1" .
result: Not fulfilled

query: Likewise for "c1ccc(-c2n[nH]c3cnc(-c4cccnc4)cc23)nc1" ?
result: Not fulfilled

query: What would you report for "Cn1cc(-c2cc3c(-c4cccc(C5CCNCC5)n4)n[nH]c3cn2)cn1" ?
result: Fulfilled

query: Could you do the same for "Cn1cc(-c2cc3c(-c4cccc(N5CCC[C@@H](N)C5)c4)n[nH]c3cn2)cn1" , please?
result: Fulfilled

---

assay: Oral bioavailability in rat; type: ADME, organism-based; conditions: in vivo
readout_kind: bioavailability (%)
Supply the numeric figure in %, leaving out any unit text.

query: What measured bioavailability goes with "CCn1cc(-c2cc3c(-c4cccc(N5CCNCC5)n4)n[nH]c3cn2)cn1" ?
result: 1

---

molecular target: Serine/threonine-protein kinase pim-1 (Homo sapiens)
Sequence (P11309 whole entry): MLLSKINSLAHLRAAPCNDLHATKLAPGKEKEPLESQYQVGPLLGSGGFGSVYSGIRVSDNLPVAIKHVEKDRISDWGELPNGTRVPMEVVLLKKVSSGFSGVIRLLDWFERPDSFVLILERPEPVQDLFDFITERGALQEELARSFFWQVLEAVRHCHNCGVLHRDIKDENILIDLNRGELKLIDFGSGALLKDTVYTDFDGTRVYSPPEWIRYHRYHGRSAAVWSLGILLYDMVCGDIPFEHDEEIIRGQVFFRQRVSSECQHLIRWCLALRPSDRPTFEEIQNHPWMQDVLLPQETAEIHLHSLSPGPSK
Would you kindly list Ki for each of these compounds?
Answer as a quantity: numeral, then unit.

query: Query (compound): "Cc1n[nH]c2ccc(-c3cn[nH]c3)cc12" ; field requested: Ki
result: 3200 nM

query: Entry to check: "c1cncc(-c2cc3c(-c4cccc(N5CCNCC5)n4)n[nH]c3cn2)c1"
result: 0.04 nM

query: Moving on to "NC1CCN(c2cncc(-c3cc4c(-c5ccccc5F)n[nH]c4cn3)n2)CC1"
result: 0.1 nM

query: Record: "Fc1ccccc1-c1n[nH]c2cnc(-c3cnccc3O[C@@H]3CCCNC3)cc12"
result: 3.4 nM

query: Continue with "c1ccc(-c2n[nH]c3cnc(-c4cccnc4)cc23)cc1"
result: 10 nM

query: Repeat with "c1cncc(-c2cc3cn[nH]c3cn2)c1"
result: 1300 nM
